conditions: in THF, 288.15 K
readout: solubility (mole fraction)
Please reply with the value in numeric form only.

Prompt line: I'd like to know its solubility (mole fraction). The molecule in question is CC(=O)[C@H]1CC[C@H]2[C@@H]3CCC4=CC(=O)CC[C@]4(C)[C@H]3CC[C@]12C
Response line: 0.0816

====

conditions: in ethanol, 303.15 K
readout: solubility (mole fraction)
Please reply with the value in numeric form only.

Prompt line: I'd like to know its solubility (mole fraction). The compound in question is CC(=O)[C@H]1CC[C@H]2[C@@H]3CCC4=CC(=O)CC[C@]4(C)[C@H]3CC[C@]12C
Response line: 0.0146

====

settings: in n-heptane, 278.15 K
readout: solubility (mole fraction)
Please reply with the value in numeric form only.

Prompt line: I'd like to know its solubility (mole fraction). The compound in question is CC(=O)[C@H]1CC[C@H]2[C@@H]3CCC4=CC(=O)CC[C@]4(C)[C@H]3CC[C@]12C
Response line: 0.000112

====

settings: in ethanol, 293.15 K
readout: solubility (mole fraction)
Please reply with the value in numeric form only.

Prompt line: I'd like to know its solubility (mole fraction). The compound in question is CC(=O)[C@H]1CC[C@H]2[C@@H]3CCC4=CC(=O)CC[C@]4(C)[C@H]3CC[C@]12C
Response line: 0.00859

====

details: in 1,4-dioxane, 288.15 K
readout: solubility (mole fraction)
Please reply with the value in numeric form only.

Prompt line: I'd like to know its solubility (mole fraction). The compound in question is CC(=O)[C@H]1CC[C@H]2[C@@H]3CCC4=CC(=O)CC[C@]4(C)[C@H]3CC[C@]12C
Response line: 0.0614

====

details: in toluene, 323.15 K
readout: solubility (mole fraction)
Please reply with the value in numeric form only.

Prompt line: I'd like to know its solubility (mole fraction). The molecule in question is CC(=O)[C@H]1CC[C@H]2[C@@H]3CCC4=CC(=O)CC[C@]4(C)[C@H]3CC[C@]12C
Response line: 0.225

====

conditions: in n-butanol, 293.15 K
readout: solubility (mole fraction)

Prompt line: I'd like to know its solubility (mole fraction). The compound in question is CC(=O)[C@H]1CC[C@H]2[C@@H]3CCC4=CC(=O)CC[C@]4(C)[C@H]3CC[C@]12C
Response line: 0.0164

====

conditions: in acetonitrile, 323.15 K
readout: solubility (mole fraction)
Please reply with the value in numeric form only.

Prompt line: I'd like to know its solubility (mole fraction). The molecule in question is CC(=O)[C@H]1CC[C@H]2[C@@H]3CCC4=CC(=O)CC[C@]4(C)[C@H]3CC[C@]12C
Response line: 0.0816

====

conditions: in acetonitrile, 303.15 K
readout: solubility (mole fraction)

Prompt line: I'd like to know its solubility (mole fraction). The compound in question is CC(=O)[C@H]1CC[C@H]2[C@@H]3CCC4=CC(=O)CC[C@]4(C)[C@H]3CC[C@]12C
Response line: 0.0305

====

conditions: in THF, 308.15 K
readout: solubility (mole fraction)

Prompt line: I'd like to know its solubility (mole fraction). The compound in question is CC(=O)[C@H]1CC[C@H]2[C@@H]3CCC4=CC(=O)CC[C@]4(C)[C@H]3CC[C@]12C
Response line: 0.143

====

details: in n-propanol, 283.15 K
readout: solubility (mole fraction)
Please reply with the value in numeric form only.

Prompt line: I'd like to know its solubility (mole fraction). The compound in question is CC(=O)[C@H]1CC[C@H]2[C@@H]3CCC4=CC(=O)CC[C@]4(C)[C@H]3CC[C@]12C
Response line: 0.0071

Value source: BigSolDB 2.1
